- Measured On: Recombinant human p38α (Homo sapiens)
- Construct: GST; made in house
- Sequence (Q16539 whole entry): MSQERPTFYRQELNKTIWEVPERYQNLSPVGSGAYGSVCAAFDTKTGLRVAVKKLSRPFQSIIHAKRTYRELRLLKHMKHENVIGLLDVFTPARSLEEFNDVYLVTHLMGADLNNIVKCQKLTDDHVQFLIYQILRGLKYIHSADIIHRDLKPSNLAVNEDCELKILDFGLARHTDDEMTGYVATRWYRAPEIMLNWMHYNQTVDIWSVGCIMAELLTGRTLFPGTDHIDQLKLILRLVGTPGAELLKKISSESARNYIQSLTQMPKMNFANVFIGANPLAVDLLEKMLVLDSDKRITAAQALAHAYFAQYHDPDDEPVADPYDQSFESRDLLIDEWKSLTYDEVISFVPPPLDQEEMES
- Measurement Description: Time-resolved fluorescence resonance energy transfer (TR-FRET) kinase assay (standard or low volume)
- Type: biochemical
- Study Conditions: second end given as 'less than'; read-out: pIC50, broad range of data upon multiple runs (converted)
Structures can show the parent of a compound that is named as a salt.
Listed here are compounds together with their documented IC50.

INSERT INTO assay_data (compound, experimental_value) VALUES
  ('Cc1ccc(C(=O)NC2CCC2)cc1-c1nc(N2CCC(N)CC2)nc2c1CNC(=O)N2c1c(F)cccc1F [1(g)]', '≥ 0.00794 µM');

Query Cc1cc(C(=O)Nc2ccccc2)ccc1-c1nc(NCCN(C)C)nc2c1CNC(=O)N2c1c(F)cccc1F [Example 106] yields IC50 of ≥ 0.158 µM

Query Cc1ccc(C(=O)NCc2ccccc2)cc1-c1nc(NCCN(C)C)nc2c1CNC(=O)N2c1c(F)cccc1F [Example 18] yields IC50 of ≥ 0.00794 µM

Query Cc1ccc(C(=O)O)cc1-c1nc(NCCN(C)C)nc2c1CNC(=O)N2c1c(F)cccc1F [Example 117] yields IC50 of ≥ 0.158 µM

Query CC(C)NC(=O)c1ccc(-c2nc(NCCN(C)C)nc3c2CNC(=O)N3c2c(F)cccc2F)cc1 [Example 97, trifluoroacetate] yields IC50 of ≥ 0.158 µM

Query Cc1cc(C(=O)NC(C)C)ccc1-c1nc(NCCN(C)C)nc2c1CNC(=O)N2c1c(F)cccc1F [104(c), trifluoroacetate] yields IC50 of ≥ 0.158 µM

Query CNC(=O)c1ccc(-c2nc(NCCN(C)C)nc3c2CNC(=O)N3c2c(F)cccc2F)cc1 [Example 102, trifluoroacetate] yields IC50 of ≥ 0.158 µM

Query Cc1cc(C(=O)N(C)C)ccc1-c1nc(NCCN(C)C)nc2c1CNC(=O)N2c1c(F)cccc1F [Example 108, trifluoroacetate] yields IC50 of ≥ 0.158 µM

Hey, just so you know, these numbers are from patent US20090239846A1.
